experiment: In vivo oral pharmacokinetics in mice; conditions: c57BL/6 male mice, 20 mg/kg gavage, in water; 20 mg/kg
value.type: Cmax
State the value with its unit after it.

Item Cc1cc(=O)oc2c1cc(-c1ccc(N)cc1)c1occ(C)c12 has what recorded Cmax?
1520 nM

====

assay: In vivo oral pharmacokinetics in mice; settings: mouse, plasma, po; c57BL/6 male mice, 20 mg/kg gavage, in water; read-out: AUC 0-inf
value.type: AUC 0-inf (µM·h)
Give just the numeric value; µM·h need not be written.

Return reported AUC 0-inf; argument: CCc1cc2c(C(C)C)cc(=O)oc2c2c(C)coc12
0.395

====

assay: In vivo oral pharmacokinetics in mice; details: mouse, plasma, po; c57BL/6 male mice, 20 mg/kg gavage, in water
value.type: Cmax (nM)
Numbers only; they are read as nM.

I have this compound here, CCc1cc2c(C(C)C)cc(=O)oc2c2c(C)coc12 , and I need its recorded Cmax.
120
